# System: KM12 colon
# Protocol notes: NCI tumour cell line growth inhibition, 48 h
Let's look at some compounds and their measured GI50.

INSERT INTO results (smiles_repr, measured) VALUES
  ('C[CH2][Sn]1([CH2]C)[O]C(=O)[O][Sn]([CH2]C)([CH2]C)[O]1', '> 61.5 µM'),
  ('CC(=O)Oc1cc(C)ccc1[C@]1(C)CC[C@H](C)/C1=C\Br', '2.92 µM');

Would you kindly look at the next entry?
Query: Note down GI50 recorded for O=C(Nc1ccc(Cl)cc1)Nc1ccc(Cl)c(Cl)c1
Result: 3.31 µM

---

Let's look at some molecules and their measured GI50.
# Test system: SN12C renal
# Protocol notes: NCI tumour cell line growth inhibition, 48 h

Some molecules with recorded GI50:
INSERT INTO measurements (smiles_repr, value_type, measured) VALUES
  ('COc1cc2nc(-c3ccc(C(F)(F)F)cc3)cc(OCCCN3CCOCC3)c2cc1OC', 'GI50', '675 nM'),
  ('S=C(Nc1ccc(-c2nc3ccccc3[nH]2)cc1)NC1CCCCC1', 'GI50', '25000 nM');

Query: Tell me GI50 of CC[N+](CCCCCCCCCC[N+](CC)(c1ccccn1)c1ccccn1)(c1ccccn1)c1ccccn1 when tested on SN12C renal.
Result: 431 nM

---

# Test system: HCT-116 colon
# Protocol notes: NCI tumour cell line growth inhibition, 48 h
Value type: TGI

Some compounds with recorded TGI:
INSERT INTO assay_data (compound, value_type, measured) VALUES
  ('N#CCCN(CCCN(C(=O)Nc1ccccc1)c1ccccc1)C(=O)Nc1ccccc1', 'TGI', '> 100 µM'),
  ('c1cnc2c(c1)-n1cccc1C1(CCSCC1)NN2', 'TGI', '> 100 µM'),
  ('CCCCSc1n/c(=C\c2ccc(N(C)C)cc2)c2nnnn12', 'TGI', '> 100 µM'),
  ('CC(=O)OCC1OC(n2c(-c3ccccc3)cc(-c3ccco3)c(C#N)c2=O)C(OC(C)=O)C(OC(C)=O)C1OC(C)=O (stereo unspecified)', 'TGI', '> 100 µM');

Query: Note down TGI recorded for CC1=C2C(O)C(C(C)CO)C(O)CC2(C)C(O)CC1 (stereo unspecified)
Result: > 100 µM

Query: Note down TGI recorded for CC(=O)O/N=C/c1ncccc1CO
Result: > 100 µM

---

# Test system: SK-MEL-28 melanoma
# Protocol notes: NCI tumour cell line growth inhibition, 48 h
Let's look at some molecules and their measured GI50.

Some molecules with recorded GI50:
INSERT INTO results (molecule, assayed_target, measured) VALUES
  ('c1ccc2c(c1)[I+]c1ccccc1-2', 'SK-MEL-28 melanoma', '> 50 µM'),
  ('COc1cc(OC2OC(C)C(O)C(O)C2O)cc2oc(-c3ccc(O)cc3)c(CC=C(C)C)c(=O)c12 (stereo not drawn)', 'SK-MEL-28 melanoma', '23.4 µM');

Would you kindly look at the next entry?
Query: Note down GI50 recorded for Clc1nc(Oc2ccccc2)nc(-c2cn(-c3ccccc3)c3ccccc23)n1
Result: 3.92 µM

---

# Tested on: EKVX NSCLC
# Protocol notes: NCI tumour cell line growth inhibition, 48 h
Value type: TGI

INSERT INTO assay_data (compound, assayed_target, measured) VALUES
  ('CC(=O)NC1=N/C(=C/c2cc([N+](=O)[O-])ccc2O)CN1C', 'EKVX NSCLC', '> 100 µM'),
  ('Cc1ccc(S(=O)(=O)N2CCN(CCN(C)CCN3CCN(S(=O)(=O)c4ccc(C)cc4)CC3)CC2)cc1', 'EKVX NSCLC', '55.2 µM'),
  ('CCOC(=O)C1=C(C)NC(=S)NC1c1cccc(O)c1 (configuration not stated)', 'EKVX NSCLC', '> 100 µM');

Query: Note down TGI recorded for NC(=O)c1c[se]c(C2OC(CO)C(O)C2O)n1 (configuration not stated)
Result: > 100 µM

Query: Note down TGI recorded for CN(C(=O)c1ccc(Cl)s1)C(=S)N(C)C(=O)c1ccc(Cl)s1
Result: > 10 µM

Query: Note down TGI recorded for O=c1ccn(C2OC(CO)C(O)C2O)c(=O)[nH]1 (configuration not stated)
Result: > 1000 µM

Query: Note down TGI recorded for O=C(Nc1ccc(Cl)cc1)Nc1ccc(Cl)c(Cl)c1
Result: > 100 µM

---

# Tested on: HT29 colon
# Protocol notes: NCI tumour cell line growth inhibition, 48 h
Let's look at some compounds and their measured TGI.

Some compounds with recorded TGI:
INSERT INTO measurements (compound, measured) VALUES
  ('CC1=C2C(O)C(C(C)CO)C(O)CC2(C)C(O)CC1 (stereo not given)', '> 100 µM'),
  ('NC(CCCCNC(=O)OCc1ccccc1)C(=O)NC(CCCCNC(=O)OCc1ccccc1)C(=O)ON1C(=O)CCC1=O (stereo not given)', '> 100 µM');

Query: Note down TGI recorded for Nc1nc(-c2cccc([N+](=O)[O-])c2)c(Br)c(=O)[nH]1
Result: > 100 µM

Query: Note down TGI recorded for C=CCNC(=S)N1CC(C)C(=O)Nc2ccccc21 (stereo not given)
Result: > 100 µM

Query: Note down TGI recorded for CCOC(=O)C(C(=O)Cc1ccccc1)c1ccccc1 (stereo not given)
Result: > 100 µM

Query: Note down TGI recorded for CC#CC(O)(C(=O)OC1CCCN(C)C1)C1=CC=CCC1 (stereo not given)
Result: > 100 µM

Query: Note down TGI recorded for C=C1C[C@]23C[C@@]1(O)CC[C@H]2[C@@]12C=C[C@H](O)[C@@](C)(C(=O)O1)[C@H]2[C@@H]3C(=O)O
Result: > 100 µM

---

# System: M14 melanoma
# Protocol notes: NCI tumour cell line growth inhibition, 48 h
Value type: TGI (µM)
Reply numerically in µM, unit not repeated.

INSERT INTO assay_data (compound, result_unit, measured) VALUES
  ('Cc1c(CCCl)c(=O)n2c([nH]c3ccccc32)c1C#N', 'µM', 2.99),
  ('S=C(Nc1ccc(-c2nc3ccccc3[nH]2)cc1)NC1CCCCC1', 'µM', 53.3);

Query: Note down TGI recorded for O=C1C(Br)=C[C@H]2C3C=CC(Br)(C3=O)[C@@H]12 (some centres not stated)
Result: 21.6

Query: Note down TGI recorded for COc1cccc(-c2nc3sccn3c2-c2ccnc(NCCNC(=O)Nc3cccc(C(F)(F)F)c3)n2)c1
Result: 8.48

Query: Note down TGI recorded for CSC(=NC1=NC(C(F)(F)F)(C(F)(F)F)N=C(c2ccccc2)O1)SC
Result: 54.6

Query: Note down TGI recorded for C=CC(=O)N1CCCC(n2nc(-c3ccc(Oc4ccccc4)cc3)c3c(N)ncnc32)C1 (configuration not stated)
Result: 21.4

Query: Note down TGI recorded for CC(C)(C)N1Cc2ccccc2/C(=C/Sc2ccccc2)C1=O
Result: 25.2

Query: Note down TGI recorded for CC[N+](CC)=c1ccc2nc3c(cc(N)c4ccccc43)oc-2c1
Result: 0.61

Query: Note down TGI recorded for COC(=O)CCC/C=C\C[C@H]1C=CC(=O)/C1=C/C[C@@H](O)CCc1cccc(C(F)(F)F)c1
Result: 6.07

---

# Test system: SNB-19 CNS
# Protocol notes: NCI tumour cell line growth inhibition, 48 h; in the data active means GI50 below about 0.43 µM; inactive means the rest
# valid calls are active, inactive; nothing else

Query: Status in this test for COc1cc(OC)c(/C=C/c2ccc3ccccc3[n+]2C)c(OC)c1 ?
Result: active

Query: Status in this test for COc1cc2nc(-c3ccc(C(F)(F)F)cc3)cc(OCCCN3CCOCC3)c2cc1OC ?
Result: inactive

Query: Status in this test for O=C(Nc1ccccc1C(F)(F)F)c1cccc(NC2=C(Cl)C(=O)N(Cc3ccccc3)C2=O)c1 ?
Result: inactive

Query: Status in this test for O=c1ccn(C2OC(CO)C(O)C2O)c(=O)[nH]1 (centres undefined) ?
Result: inactive

---

# System: MOLT-4 leukemia
# Protocol notes: NCI tumour cell line growth inhibition, 48 h
Let's look at some compounds and their measured TGI.

Some compounds with recorded TGI:
INSERT INTO results (compound, assayed_target, value_type, measured) VALUES
  ('CCN(CC)CCCCC1CCN(CC(=O)N2CC(C)C(=O)Nc3ccccc32)CC1 (stereo unspecified)', 'MOLT-4 leukemia', 'TGI', '> 100 µM'),
  ('Cc1nc(N)sc1C(=O)/C=C/c1ccc(/C=C/C(=O)c2sc(NC(=O)CCCCCCCCC(=O)Nc3nc(C)c(C(=O)/C=C/c4ccc(/C=C/C(=O)c5sc(N)nc5C)cc4)s3)nc2C)cc1', 'MOLT-4 leukemia', 'TGI', '> 100 µM'),
  ('COC(=O)[C@@H]1N2C(=S)N(c3ccccc3)C(=O)[C@H]2SC1(C)C', 'MOLT-4 leukemia', 'TGI', '> 100 µM'),
  ('CC(C)(C)OC(=O)N1C(OP(=O)(Oc2ccccc2)Oc2ccccc2)=COc2cccnc21', 'MOLT-4 leukemia', 'TGI', '43.3 µM'),
  ('CCOC(=O)C(C(=O)Cc1ccccc1)c1ccccc1 (stereo unspecified)', 'MOLT-4 leukemia', 'TGI', '> 100 µM');

Query: Note down TGI recorded for O=c1[nH]nc(Cc2ccc(Cl)cc2)n1O
Result: > 100 µM

Query: Note down TGI recorded for CCOC(=O)CCC(=O)C1c2cccc(O)c2C(=O)c2c(O)cccc21
Result: 13.7 µM

Query: Note down TGI recorded for CCCCN(c1ccccc1)c1ncnc2c1cnn2C
Result: 40.8 µM

Query: Note down TGI recorded for CC1=CSC2=NC(c3ccc(Cl)c(Cl)c3)=CC(c3ccc(Cl)cc3)N12 (stereo unspecified)
Result: > 100 µM

Query: Note down TGI recorded for CCCCNc1nc(NC(C)(C)C)nc(NC(C)(C)C)n1
Result: > 100 µM

Query: Note down TGI recorded for C[CH2][Sn]1([CH2]C)[O]C(=O)[O][Sn]([CH2]C)([CH2]C)[O]1
Result: > 100 µM

Query: Note down TGI recorded for CCOC(=O)C1=C(C)NC(=S)NC1c1cccc(O)c1 (stereo unspecified)
Result: > 100 µM

Data provenance: PubChem BioAssay (NCI)
